Hey, just so you know, these numbers are from paper PMC7512223.

- TEST SYSTEM: MAO-A (Homo sapiens, UniProt P21397)
- Sequence (P21397 whole entry): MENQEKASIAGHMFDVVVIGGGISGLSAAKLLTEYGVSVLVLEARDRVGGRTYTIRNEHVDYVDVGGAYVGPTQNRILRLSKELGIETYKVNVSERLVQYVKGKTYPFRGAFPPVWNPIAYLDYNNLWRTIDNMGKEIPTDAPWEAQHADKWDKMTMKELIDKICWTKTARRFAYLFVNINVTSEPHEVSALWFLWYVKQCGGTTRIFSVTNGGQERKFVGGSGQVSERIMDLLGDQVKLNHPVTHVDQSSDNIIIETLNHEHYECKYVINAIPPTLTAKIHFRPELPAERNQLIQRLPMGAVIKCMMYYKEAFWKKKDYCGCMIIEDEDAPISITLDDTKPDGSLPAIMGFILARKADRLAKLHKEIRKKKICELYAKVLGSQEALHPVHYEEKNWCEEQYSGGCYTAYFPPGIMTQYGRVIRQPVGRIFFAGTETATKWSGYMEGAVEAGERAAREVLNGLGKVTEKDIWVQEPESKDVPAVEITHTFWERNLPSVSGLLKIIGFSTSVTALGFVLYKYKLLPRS
- METHOD DESCRIPTION: Inhibition of recombinant human MAO-A, kynuramine fluorometric assay
- Format: biochemical
pIC50: −log10 of the molar value.
QUANTITY MEASURED: pIC50

- COMPOUND: "Cc1ccc(COc2ccc3c(c2)OCCC3=O)cc1 [2g, 7-(4-Methylbenzyloxy)-4-chromanone]"
  RESULT: "< 4.00"
- COMPOUND: "O=C1CCOc2cc(OCCOc3ccc(Cl)cc3)ccc21 [2k]"
  RESULT: "< 4.00"
- COMPOUND: "O=C1CCOc2cc(OCc3ccccc3)ccc21 [2a, 7-Benzyloxy-4-chromanone]"
  RESULT: "< 4.00"
- COMPOUND: "Cc1ccc(CCOc2ccc3c(c2)OCCC3=O)cc1 [2p]"
  RESULT: 5.02
- COMPOUND: "O=C1CCOc2cc(O)ccc21 [compound 12, 7-Hydroxy-4-chromanone]"
  RESULT: "< 4.00"
